These data points were gathered from PubChem BioAssay AID1159580.

Protocol text: chemical genetic growth profiling, strain panel (AID 1159580);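 further: tested at 20 µM; growth read once vehicle control cultures reached saturation at 30 °C; 1 = growth at the plate median or of vehicle wells; lower values mean less growth of the strain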
Run parameters: S. cerevisiae deletion strains, growth OD, locus YDR318W, strain mcm21, stronger effect = lower value
The whole screen tested about 5,500 compounds, of which about 2,000 (36%) were called active. Another 18% or so got no clear call; they are omitted. The list shows a part of the results.
Overview of reported normalized growth across a group of compounds:

[
  {
    "Compound": "ClC(Cl)=C(c1ccc(Cl)cc1)c1ccc(Cl)cc1",
    "normalized growth": "0.961 (inactive)"
  },
  {
    "Compound": "C=CCCCCCCCCCCCC(O)CC(O)CO (stereo not drawn)",
    "normalized growth": "0.872 (active)"
  },
  {
    "Compound": "CC1=NCCc2c1[nH]c1cc(O)ccc21",
    "normalized growth": "0.994 (inactive)"
  },
  {
    "Compound": "COc1ccc(-c2cc(=O)c3ccccc3o2)cc1OC",
    "normalized growth": "0.999 (inactive)"
  },
  {
    "Compound": "CC(C)Oc1ccc2c(=O)cc(-c3ccccc3)oc2c1",
    "normalized growth": "0.885 (active)"
  },
  {
    "Compound": "CC(=O)Nc1ccc(OC(=O)c2ccccc2O)cc1",
    "normalized growth": "0.93 (inactive)"
  },
  {
    "Compound": "Clc1ccc(Cl)cc1",
    "normalized growth": "0.99 (inactive)"
  },
  {
    "Compound": "Nc1ccc(C(=O)Oc2ccccc2)c(O)c1",
    "normalized growth": "0.765 (active)"
  },
  {
    "Compound": "COc1ccc(-c2cc(=O)c3ccccc3o2)cc1",
    "normalized growth": "0.792 (active)"
  },
  {
    "Compound": "Nc1ccc(C(=O)O)c(O)c1",
    "normalized growth": "1.01 (inactive)"
  },
  {
    "Compound": "CC(=O)Nc1cccc(O)c1",
    "normalized growth": "1.01 (inactive)"
  },
  {
    "Compound": "C=CCc1ccccc1OCC(O)CNC(C)C (stereo not drawn)",
    "normalized growth": "1.01 (inactive)"
  },
  {
    "Compound": "Nc1ccc(C(=O)O)c(O)c1 (tested in a mixture with another compound)",
    "normalized growth": "0.992 (inactive)"
  }
]

====

Protocol text: chemical genetic growth profiling, strain panel (AID 1159580);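 further: tested at 20 µM; growth read once vehicle control cultures reached saturation at 30 °C; 1 = growth at the plate median or of vehicle wells; lower values mean less growth of the strain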
Run parameters: S. cerevisiae deletion strains, growth OD, locus YLR384C, strain iki3
Hit rate of the full screen: of about 5,500 compounds, about 2,000 (36%) were called active. Not shown: some 18% with an inconclusive outcome. Rule as the data show it: active = normalized growth mostly below about 0.91 (no sharp cut-off); inconclusive = no clear call, values can overlap the other calls; inactive = mostly above about 0.92. The list shows a part of the results.
Outcomes: yes (active), no (inactive)

[
  {
    "Molecule": "COc1c(O)cccc1O",
    "Label class": "no"
  },
  {
    "Molecule": "COc1ccc(-c2cc(=O)c3cc(OC)ccc3o2)cc1",
    "Label class": "no"
  },
  {
    "Molecule": "O=c1c2ccccc2oc2ccccc12",
    "Label class": "no"
  },
  {
    "Molecule": "COC(=O)C1=C(C)NC(C)=C(C(=O)OCCN(C)Cc2ccccc2)C1c1cccc([N+](=O)[O-])c1 (centres undefined)",
    "Label class": "no"
  },
  {
    "Molecule": "CNCCC=C1c2ccccc2CCc2ccccc21",
    "Label class": "no"
  },
  {
    "Molecule": "CN(C)CC/C=C1/c2ccccc2COc2ccccc21",
    "Label class": "no"
  },
  {
    "Molecule": "C[n+]1cc2c3c(ccc2c2ccc4cc5c(cc4c21)OCO5)OCO3",
    "Label class": "no"
  },
  {
    "Molecule": "CCCCOc1cc(CC2CNC(=O)N2)ccc1OC (centres undefined)",
    "Label class": "no"
  },
  {
    "Molecule": "CCCCC1C(=O)N(c2ccccc2)N(c2ccccc2)C1=O",
    "Label class": "no"
  },
  {
    "Molecule": "CC(C)=CCc1c2c(c(O)c3c(=O)c(O)c(-c4ccccc4)oc13)C=CC(C)(C)O2",
    "Label class": "yes"
  },
  {
    "Molecule": "NCC(=O)CCC(=O)O",
    "Label class": "no"
  },
  {
    "Molecule": "NCCc1ccc(O)cc1",
    "Label class": "no"
  },
  {
    "Molecule": "COc1ccc(-c2cc(=O)c3ccccc3o2)cc1",
    "Label class": "yes"
  },
  {
    "Molecule": "C=CCc1ccccc1OCC(O)CNC(C)C (centres undefined)",
    "Label class": "no"
  },
  {
    "Molecule": "CN1CCOC(c2ccccc2)c2ccccc2C1 (centres undefined)",
    "Label class": "no"
  },
  {
    "Molecule": "Nc1nc(N)c2nc(-c3ccccc3)c(N)nc2n1",
    "Label class": "no"
  },
  {
    "Molecule": "O=C1c2c(O)ccc(O)c2C(=O)c2c(NCCNCCO)ccc(NCCNCCO)c21",
    "Label class": "yes"
  },
  {
    "Molecule": "CC(=O)Nc1ccc(O)cc1",
    "Label class": "no"
  },
  {
    "Molecule": "CC(=O)O[C@H]1C[C@@H](O)C(C)(C)C2C[C@@H](OC(C)=O)[C@]3(C)C(CC[C@@]4(C)[C@H](c5ccoc5)OC(=O)C5OC543)[C@]21C (some centres undefined)",
    "Label class": "no"
  },
  {
    "Molecule": "CC(=O)Nc1ccc(OC(=O)c2ccccc2O)cc1",
    "Label class": "no"
  },
  {
    "Molecule": "CCN(CC)CCNc1ccc(CO)c2sc3ccccc3c(=O)c12",
    "Label class": "no"
  },
  {
    "Molecule": "O=c1oc2ccccc2c(O)c1Cc1c(O)c2ccccc2oc1=O",
    "Label class": "no"
  },
  {
    "Molecule": "NCCc1ccc(O)c(O)c1",
    "Label class": "no"
  },
  {
    "Molecule": "Cc1cc2cc3c(C)cc(=O)oc3c(C)c2o1",
    "Label class": "no"
  },
  {
    "Molecule": "C/C(=C\\C(=O)OCCCCCCCCC(=O)O)C[C@@H]1OC[C@H](C[C@@H]2O[C@H]2[C@@H](C)[C@H](C)O)[C@@H](O)[C@H]1O",
    "Label class": "no"
  },
  {
    "Molecule": "CC(=O)CC(c1ccccc1)c1c(O)c2ccccc2oc1=O (centres undefined)",
    "Label class": "no"
  },
  {
    "Molecule": "CCCN1C[C@H](CSC)C[C@@H]2c3cccc4[nH]cc(c34)C[C@H]21",
    "Label class": "no"
  },
  {
    "Molecule": "COc1ccc(-c2cc(=O)c3c(OC)c(OC)c(OC)c(OC)c3o2)cc1",
    "Label class": "no"
  },
  {
    "Molecule": "O=C(O)c1cc(=O)c2ccccc2o1",
    "Label class": "no"
  },
  {
    "Molecule": "CC(=O)Oc1c(-c2ccccc2)oc2c(CC=C(C)C)c3c(c(OC(C)=O)c2c1=O)C=CC(C)(C)O3",
    "Label class": "yes"
  },
  {
    "Molecule": "O=C1CCc2cc(OCCCCc3nnnn3C3CCCCC3)ccc2N1",
    "Label class": "no"
  },
  {
    "Molecule": "O=C(O)c1cn(-c2ccc(F)cc2)c2cc(N3CCNCC3)c(F)cc2c1=O",
    "Label class": "no"
  },
  {
    "Molecule": "CN(C)CCC=C1c2ccccc2CCc2ccccc21",
    "Label class": "no"
  },
  {
    "Molecule": "CC(=O)O[C@@H]1CC2C(C)(C)C(=O)CC[C@]2(C)C2CC[C@@]3(C)[C@H](c4ccoc4)OC(=O)C4OC43[C@@]21C (some centres undefined)",
    "Label class": "no"
  },
  {
    "Molecule": "N[C@H](CO)Cc1ccccc1",
    "Label class": "no"
  },
  {
    "Molecule": "CC[C@]12C=CCN3CC[C@@]4(c5ccc(OC)cc5N(C)C4[C@@](O)(C(=O)OC)[C@@H]1OC(C)=O)[C@@H]32 (some centres undefined)",
    "Label class": "no"
  },
  {
    "Molecule": "C[N+]1(CCCCC[N+]2(C)CCCC2)CCCC1",
    "Label class": "no"
  },
  {
    "Molecule": "CC(C)c1ccc2c(c1O)CC[C@H]1C3=C(CC[C@]21C)C(=O)OC3",
    "Label class": "no"
  },
  {
    "Molecule": "CN(C)CCC=C1c2ccccc2C=Cc2ccccc21",
    "Label class": "no"
  },
  {
    "Molecule": "COc1ccc(-c2cc(=O)c3c(O)c(OC)c(OC)c(OC)c3o2)cc1",
    "Label class": "no"
  },
  {
    "Molecule": "CCCCCCCCCCCCCCCC[n+]1ccccc1",
    "Label class": "yes"
  },
  {
    "Molecule": "ClC(Cl)=C(c1ccc(Cl)cc1)c1ccc(Cl)cc1",
    "Label class": "no"
  },
  {
    "Molecule": "COc1ccc(-c2cc(=O)c3ccccc3o2)cc1OC",
    "Label class": "no"
  },
  {
    "Molecule": "C=CCCCCCCCCCCCC(O)CC(O)CO (centres undefined)",
    "Label class": "no"
  },
  {
    "Molecule": "CC(C)(Oc1ccc(Cl)cc1)C(=O)O",
    "Label class": "no"
  },
  {
    "Molecule": "Nc1ccc(C(=O)O)c(O)c1",
    "Label class": "no"
  },
  {
    "Molecule": "O=C1CN2Cc3c(ccc(Cl)c3Cl)N=C2N1",
    "Label class": "no"
  },
  {
    "Molecule": "CCCCCCc1ccc(O)cc1O",
    "Label class": "no"
  },
  {
    "Molecule": "Nc1ccc(C(=O)Oc2ccccc2)c(O)c1",
    "Label class": "no"
  }
]
